# Tested on: Plasma
# procedure.details: Plasma concentration in Sprague-Dawley rat model of formalin-induced nociception behavior at 10 mg/kg, po
# Type: ADME, organism-based
# condition: in vivo
experimental.endpoint: concentration

>  <mol>
N#Cc1cc(C(F)(F)F)ccc1N1CCOc2cc(S(=O)(=O)Nc3nccs3)c(F)cc21

>  <measurement.target>
Plasma

>  <result>
1700 nM

$$$$

----------
# procedure.details: Cmax in mouse at 30 mg/kg, po by LC-MS/MS method
# Type: ADME, organism-based
# Parameters: dose 30 mg/kg, route oral
# condition: in vivo
experimental.endpoint: Cmax (µM)

>  <mol>
N#Cc1cc(C(F)(F)F)ccc1N1CCOc2cc(S(=O)(=O)Nc3nccs3)c(F)cc21

>  <endpoint.unit>
µM

>  <quantitative.result>
58

$$$$

Values compiled from ChEMBL document CHEMBL4052683.
